Consider the following compounds and their measured logP at 24 h readings.
- Protocol text: physchem
- Condition summary: pH 6, Log P
Measured attribute: logP at 24 h

# Compound, Endpoint result
data = [
    ("CCc1c2c(nc3ccc(O[C@@H]4O[C@H](C(=O)O)[C@@H](O)[C@H](O)[C@H]4O)cc13)-c1cc3c(c(=O)n1C2)COC(=O)[C@]3(O)CC [SN38-G, SN38 glucuronide]", -2.89),
    ("CCc1c2c(nc3ccc(O[C@@H]4O[C@H](C(=O)OC)[C@@H](O)[C@H](O)[C@H]4O)cc13)-c1cc3c(c(=O)n1C2)COC(=O)[C@]3(O)CC", 0.07),
    ("CCc1c2c(nc3ccc(O)cc13)-c1cc3c(c(=O)n1C2)COC(=O)[C@]3(O)CC [SN38, 7-ethyl-10-hydroxycamptothecin]", 1.73),
    ("CCOC(=O)[C@H]1O[C@@H](Oc2ccc3nc4c(c(CC)c3c2)Cn2c-4cc3c(c2=O)COC(=O)[C@]3(O)CC)[C@H](O)[C@@H](O)[C@@H]1O", 0.66),
]

src = paper PMC12284848
